Quick list: pKd per entry.
TGT: GRID2IP_2, A4D2P6
Sequence (A4D2P6 272-370): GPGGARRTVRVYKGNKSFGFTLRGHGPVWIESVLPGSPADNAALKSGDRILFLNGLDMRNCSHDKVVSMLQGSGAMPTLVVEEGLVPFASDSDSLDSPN
ASSAY_DETAILS: holdup assay
Design: key: below the threshold = too weak to quantify, mostly under pKd 3.1 to 4
SETUP_CONDITIONS: plain residues with an end cap or a label only (N-terminal biotin on a linker: ttds)

| BINDER | pKd |
| --- | --- |
| RLPKIKETTV [FRMPD4, Q14CM0] | 3.74 |
| RPLPRKVSQL [DOCK4, Q8N1I0] | 4.19 |
| NDPAWDETNL [ARHGEF7, Q14155] | 3.63 |
